assay: in vitro; conditions: human, hela cells, % viability
Rule: measured viability at 28.5 h, 10 µM below 90% gets 1; anything equal to or greater than 90% gets -1.

These solved cases illustrate the format of a correct answer.
[[record]]
molecule = "CS(=O)(=O)CCC(C(=O)O)N1C(=O)c2ccc(C(=O)O)cc2C1=O (centres unmarked)"
answer_label = -1

[[record]]
molecule = "CS(=O)(=O)c1ccc(-c2ccc3c(c2)COC(C2CCN(C(=O)c4ccccc4O)CC2)O3)cc1 (centres unmarked)"
answer_label = 1

[[record]]
molecule = "Cc1nc2sc3c(c2c2nc(CCC(=O)O)nn12)CC(C)(C)OC3"
answer_label = 1


Is it true that viability at 28.5 h, 10 µM reported for COc1cccc2cc(C(=O)NCCc3ccc(O)cc3)oc12 is less than 90%?
-1

Is it true that viability at 28.5 h, 10 µM reported for CSCc1ccc(C(=O)Nc2cc(C(=O)O)ccc2C)cc1 is less than 90%?
-1

====

experiment: in vitro; conditions: human, hela cells, % viability
MEASUREMENT_KIND: viability at 28.5 h, 10 µM

In plain terms, COc1ccccc1CN(C)S(=O)(=O)c1ccc(S(N)(=O)=O)cc1 has a documented viability at 28.5 h, 10 µM of 113%

In plain terms, CCCNC(=O)Cn1cnc2sc(C(=O)Nc3ccc(OCC)cc3)c(C)c2c1=O has a documented viability at 28.5 h, 10 µM of 91.2%

====

experiment: in vitro; set-up: Viability of infected HeLa host cells, resazurin conversion, bulk resorufin fluorescence relative to DMSO; settings: human, hela cells; bulk resorufin, mean of 2
Below is a list of entries, each paired with its recorded viability at 28.5 h, 5 µM value.
Entry rule: numbers only, all in %.

Take a look at these entries with their results.
[[record]]
compound = "COc1ccc([C@@]23CC[C@@H](Nc4nc(-c5ccc(Br)cc5)cs4)C[C@@H]2N(C)CC3)cc1OC [CBK036543]"
unit_of_measure = "%"
observed_value = 91

[[record]]
compound = "c1ccc(Oc2cccc(OCCCN3CCCCC3)c2)cc1 [CBK261781]"
unit_of_measure = "%"
observed_value = 97

[[record]]
compound = "CN(C)c1ncc(-c2cccc(Cl)c2)c(C2CCCN2C(=O)CC2CCCC2)n1 (stereo not drawn) [CBK286253]"
unit_of_measure = "%"
observed_value = 106

[[record]]
compound = "Cc1csc(SC(C)C(=O)N2CCc3ccccc32)n1 (stereo not drawn) [CBK305909]"
unit_of_measure = "%"
observed_value = 91.9

[[record]]
compound = "Cc1ccc(S(=O)(=O)Nc2cc(SCC(=O)O)c(O)c3ccccc23)cc1 [CBK265708]"
unit_of_measure = "%"
observed_value = 99.6

[[record]]
compound = "O=C(Nc1ccc(OC(F)(F)F)cc1)Nc1cc(-c2cccs2)n[nH]1 [CBK020563]"
unit_of_measure = "%"
observed_value = 110


In plain terms, NCc1ccc2cccc(O)c2n1 [CBK001376T] has a documented viability at 28.5 h, 5 µM of 112

In plain terms, CC(Nc1cccc2ccccc12)C(=O)N/N=C/c1c(O)ccc2ccccc12 (stereo not drawn) [CBK262678] has a documented viability at 28.5 h, 5 µM of 83

In plain terms, O=C1C(NCCO)=C(Nc2cccc(Cl)c2)C(=O)c2ccccc21 [CBK264323] has a documented viability at 28.5 h, 5 µM of 98.6

# credit: paper PMC12040169
